system tested: HLA-A*02:01 (Homo sapiens, UniProt P04439, D140Y/D185E/D98H/E176V/E277Q/G131W/G231S/I119V/I121R/I166T/I218V/L300P/L318F/N151K/N90K/P208A/P217A/Q86G/Q94H/R138H/R169H/T345S)
experimental protocol: MHC binding assay (UV-ligand exchange, ELISA of exchange yield)
experimental setup: binding to HLA-A*02:01, UV-ligand exchange
assay metric: Peptide exchange (MHC class I binding score, peptide exchange yield)

Some entries whose results are on file:
{"substance": "611 (YLLDDGTLVV; listed as Homo sapiens) [compound 611]", "recorded value": "“++++” (≥75% = ++++)"}
{"substance": "67 (TLLAEALVTV; listed as Homo sapiens) [compound 67]", "recorded value": "“+++” (≥50 = +++)"}
{"substance": "288 (NLINEINGV; listed as Homo sapiens) [compound 288]", "recorded value": "“+++” (≥50 = +++)"}
{"substance": "374 (FLLQQHLISA; listed as Homo sapiens) [compound 374]", "recorded value": "“++” (≥20% = ++)"}
{"substance": "613 (RLLPPGAVVAV; listed as Homo sapiens) [compound 613]", "recorded value": "“+++” (≥50 = +++)"}

For every item in the list below, what is its measured Peptide exchange (MHC class I binding score, peptide exchange yield)?
1. 8 (FTLGNVVGMYL; listed as Homo sapiens) [compound 8]
2. 474 (YLDPALELGPRNV; listed as Homo sapiens) [compound 474]
3. 384 (ILFANPNIFV; listed as Homo sapiens) [compound 384]
4. 284 (ILLSQTTGV; listed as Homo sapiens) [compound 284]
5. 515 (LLQELVLFL; listed as Homo sapiens) [compound 515]
6. 144 (YIMEPSIFNTL; listed as Homo sapiens) [compound 144]
7. 275 (YLVYILNEL; listed as Homo sapiens) [compound 275]

a:
1. “++++” (≥75% = ++++)
2. “+++” (≥50 = +++)
3. “+++” (≥50 = +++)
4. “+++” (≥50 = +++)
5. “+++” (≥50 = +++)
6. “+++” (≥50 = +++)
7. “++” (≥20% = ++)

====

system tested: HLA-A*02:01 (Homo sapiens, UniProt P04439, D140Y/D185E/D98H/E176V/E277Q/G131W/G231S/I119V/I121R/I166T/I218V/L300P/L318F/N151K/N90K/P208A/P217A/Q86G/Q94H/R138H/R169H/T345S)
experimental protocol: MHC binding assay (UV-ligand exchange, ELISA of exchange yield)
experimental setup: binding to HLA-A*02:01, UV-ligand exchange
assay metric: Peptide exchange (MHC class I binding score, peptide exchange yield)

{"substance": "608 (SLLSVSHAL; listed as Homo sapiens) [compound 608]", "recorded value": "“+++” (≥50 = +++)"}
{"substance": "190 (FLSSLTETI; listed as Homo sapiens) [compound 190]", "recorded value": "“+++” (≥50 = +++)"}
{"substance": "49 (YLPAVFEEV; listed as Homo sapiens) [compound 49]", "recorded value": "“+++” (≥50 = +++)"}
{"substance": "264 (SLQEQLHSV; listed as Homo sapiens) [compound 264]", "recorded value": "“+++” (≥50 = +++)"}

====

system tested: HLA-A*02:01 (Homo sapiens, UniProt P04439, D140Y/D185E/D98H/E176V/E277Q/G131W/G231S/I119V/I121R/I166T/I218V/L300P/L318F/N151K/N90K/P208A/P217A/Q86G/Q94H/R138H/R169H/T345S)
experimental protocol: MHC binding assay (UV-ligand exchange, ELISA of exchange yield)
experimental setup: binding to HLA-A*02:01, UV-ligand exchange
Source text: Candidate peptides for T cell based therapies according to the present invention were further tested for their MHC binding capacity (affinity). The individual peptide-MHC complexes were produced by UV-ligand exchange, where a UV-sensitive peptide is cleaved upon UV-irradiation, and exchanged with the peptide of interest as analyzed. Only peptide candidates that can effectively bind and stabilize the peptide-receptive MHC molecules prevent dissociation of the MHC complexes. […]
assay metric: Peptide exchange (MHC class I binding score, peptide exchange yield)

Some entries whose results are on file:
{"substance": "517 (LLMPIPEGLTL; listed as Homo sapiens) [compound 517]", "recorded value": "“+++” (≥50 = +++)"}
{"substance": "603 (FLIEPEHVNTV; listed as Homo sapiens) [compound 603]", "recorded value": "“++” (≥20% = ++)"}
{"substance": "345 (VIWKALIHL; listed as Homo sapiens) [compound 345]", "recorded value": "“+++” (≥50 = +++)"}
{"substance": "391 (YVYPQRLNFV; listed as Homo sapiens) [compound 391]", "recorded value": "“+++” (≥50 = +++)"}

Read the next record carefully.
Summary for this substance, 121 (GVVDPRAISVL; listed as Homo sapiens) [compound 121] : Peptide exchange (MHC class I binding score, peptide exchange yield) is “++” (≥20% = ++)

====

system tested: HLA-A*02:01 (Homo sapiens, UniProt P04439, D140Y/D185E/D98H/E176V/E277Q/G131W/G231S/I119V/I121R/I166T/I218V/L300P/L318F/N151K/N90K/P208A/P217A/Q86G/Q94H/R138H/R169H/T345S)
experimental protocol: MHC binding assay (UV-ligand exchange, ELISA of exchange yield)
experimental setup: binding to HLA-A*02:01, UV-ligand exchange
assay metric: Peptide exchange (MHC class I binding score, peptide exchange yield)

Some entries whose results are on file:
{"substance": "327 (GLAPFTEGISFV; listed as Homo sapiens) [compound 327]", "recorded value": "“+++” (≥50 = +++)"}
{"substance": "501 (LLDPNVKSIFV; listed as Homo sapiens) [compound 501]", "recorded value": "“+++” (≥50 = +++)"}
{"substance": "273 (NLFQSVREV; listed as Homo sapiens) [compound 273]", "recorded value": "“++” (≥20% = ++)"}
{"substance": "94 (YLIDIKTIAI; listed as Homo sapiens) [compound 94]", "recorded value": "“++” (≥20% = ++)"}
{"substance": "125 (VQIHQVAQV; listed as Homo sapiens) [compound 125]", "recorded value": "“+++” (≥50 = +++)"}
{"substance": "191 (LLQEGQALEYV; listed as Homo sapiens) [compound 191]", "recorded value": "“++” (≥20% = ++)"}
{"substance": "234 (ALMEDTGRQML; listed as Homo sapiens) [compound 234]", "recorded value": "“++” (≥20% = ++)"}

Read the next record carefully.
Summary for this substance, 614 (LLLPDQPPYHL; listed as Homo sapiens) [compound 614] : Peptide exchange (MHC class I binding score, peptide exchange yield) is “+++” (≥50 = +++)

====

system tested: HLA-A*02:01 (Homo sapiens, UniProt P04439, D140Y/D185E/D98H/E176V/E277Q/G131W/G231S/I119V/I121R/I166T/I218V/L300P/L318F/N151K/N90K/P208A/P217A/Q86G/Q94H/R138H/R169H/T345S)
experimental protocol: MHC binding assay (UV-ligand exchange, ELISA of exchange yield)
experimental setup: binding to HLA-A*02:01, UV-ligand exchange
assay metric: Peptide exchange (MHC class I binding score, peptide exchange yield)

Some entries whose results are on file:
{"substance": "321 (GLFEDVTQPGILL; listed as Homo sapiens) [compound 321]", "recorded value": "“++++” (≥75% = ++++)"}
{"substance": "580 (LLMENAERV; listed as Homo sapiens) [compound 580]", "recorded value": "“++” (≥20% = ++)"}
{"substance": "194 (ALPLFVITV; listed as Homo sapiens) [compound 194]", "recorded value": "“+++” (≥50 = +++)"}
{"substance": "313 (VLFDDELLMV; listed as Homo sapiens) [compound 313]", "recorded value": "“+++” (≥50 = +++)"}
{"substance": "140 (YMDAPKAAL; listed as Homo sapiens) [compound 140]", "recorded value": "“++” (≥20% = ++)"}

For every item in the list below, what is its measured Peptide exchange (MHC class I binding score, peptide exchange yield)?
1. 529 (LLADELITV; listed as Homo sapiens) [compound 529]
2. 427 (ALLPLSPYL; listed as Homo sapiens) [compound 427]
3. 311 (RLYTGMHTV; listed as Homo sapiens) [compound 311]
4. 267 (ALQDFLLSV; listed as Homo sapiens) [compound 267]
5. 480 (ALLEDSCHYL; listed as Homo sapiens) [compound 480]
6. 382 (ALQNYIKEA; listed as Homo sapiens) [compound 382]
7. 246 (LLWEVVSQL; listed as Homo sapiens) [compound 246]

a:
1. “+++” (≥50 = +++)
2. “+++” (≥50 = +++)
3. “+++” (≥50 = +++)
4. “+++” (≥50 = +++)
5. “+++” (≥50 = +++)
6. “++” (≥20% = ++)
7. “+++” (≥50 = +++)

For every item in the list below, what is its measured Peptide exchange (MHC class I binding score, peptide exchange yield)?
1. 489 (KMWEELPEVV; listed as Homo sapiens) [compound 489]
2. 385 (SLLEQGLVEA; listed as Homo sapiens) [compound 385]
3. 478 (YLLHEKLNL; listed as Homo sapiens) [compound 478]
4. 253 (GLDAATATV; listed as Homo sapiens) [compound 253]
5. 4 (GIMEHITKI; listed as Homo sapiens) [compound 4]
6. 237 (ALLEASGTLLL; listed as Homo sapiens) [compound 237]
7. 261 (YVLEFLEEI; listed as Homo sapiens) [compound 261]

a:
["“+++” (≥50 = +++)", "“++” (≥20% = ++)", "“+++” (≥50 = +++)", "“++” (≥20% = ++)", "“++++” (≥75% = ++++)", "“++++” (≥75% = ++++)", "“++” (≥20% = ++)"]

src = patent US10047131B2
